PROCEDURE DETAILS: Viability qHTS for spleen associated tyrosine kinase inhibitor (SYKi) naive MV4-11 cells (AID 1963823); further: nearly all actives have a fitted effect of over 40% in size
MEASUREMENT SETUP: MV4-11 AML viability, CellTiter-Glo luminescence, 72 h; series mostly up to 45 µM
Description: Department of Medicine, Hematology/Oncology University Hospital Frankfurt, Germany. Trials have shown promising clinical activity of the selective SYK inhibitor entospletinib in patients with high expressing HOXA9/MEIS1 acute leukemias. […] 7; Detection; Luminescence; ViewLux plate reader (PerkinElmer). […] 1. Quantitative high-throughput screening (qHTS) of small molecule compounds was conducted on naive SYKi MV4-11 cell line. […] 7. Luminescence was measured on a ViewLux plate reader (PerkinElmer).
Results filed as inconclusive are left out. The source made the active and inactive calls. The call rests on the fitted dose curve; in most records, active means well fitted cell-killing curve with a large enough effect; inconclusive means small, poorly fitted or top-dose-only effect, or effect the other way; inactive means no such curve, though single readings can be large or run the other way.
Field 'call' accepts t (active), f (inactive)

Exercise: I'd appreciate the recorded outcome for Cc1nnc2n1-c1sc(CCC(=O)N3CCOCC3)cc1C(c1ccccc1Cl)=NC2 from this test.
Key: f

Exercise: # repeat for COc1ccc2c(c1)/C(=C/c1cnc[nH]1)C(=O)N2
Key: t

Exercise: # repeat for CN(C)c1cc2c(cc1Sc1nc3c(N)nccc3n1CCNCC(C)(C)C)OCO2
Key: t

Exercise: # repeat for Clc1ccc(COC(Cn2ccnc2)c2ccc(Cl)cc2Cl)cc1 (stereo not given)
Key: t

Exercise: # repeat for COC[C@H]1OC(=O)c2coc3c2[C@@]1(C)C1=C(C3=O)[C@@H]2CC[C@H](O)[C@@]2(C)C[C@@H]1OC(C)=O
Key: t

Exercise: # repeat for CN1CCc2cc3c(cc2C1C1OC(=O)c2c1ccc1c2OCO1)OCO3 (stereo not given)
Key: f

Exercise: # repeat for Cc1ncc(OC[C@@]2(c3cccc(F)c3)C[C@H]2C(=O)Nc2ccc(F)cn2)c(C)n1
Key: f

Exercise: # repeat for C[C@]12CCC(=O)C=C1CC[C@@H]1[C@@H]2CC[C@]2(C)C(=O)CC[C@@H]12
Key: f

Exercise: # repeat for CC[C@@H](C)[C@H]1C(=O)O[C@H](C(C)C)C(=O)N(C)[C@@H](C(C)C)C(=O)O[C@H](C(C)C)C(=O)N(C)[C@@H](C(C)C)C(=O)O[C@H](C(C)C)C(=O)N1C
Key: t

Exercise: # repeat for Cc1sc2c(c1C)C(c1ccc(Cl)cc1)=N[C@@H](CC(N)=O)c1nnc(C)n1-2
Key: t

Exercise: # repeat for COC(=O)C1=CCCN(C)C1
Key: f

Exercise: # repeat for COc1ccsc1CNCC[C@@]1(c2ccccn2)CCOC2(CCCC2)C1
Key: f

Exercise: # repeat for C/C=C(\C)C(=O)O[C@H]1CC2C(=C1C)[C@H]1OC(=O)[C@](C)(O)[C@]1(O)[C@H](OC(=O)CCC)C[C@@]2(C)OC(C)=O (stereo not given in full)
Key: t

Exercise: # repeat for C=CCN1C[C@H](C)N([C@H](c2ccc(C(=O)N(CC)CC)cc2)c2cccc(OC)c2)C[C@H]1C
Key: f

Exercise: # repeat for CCOC(=O)NC(C)(C)Cc1ccc(Cl)cc1
Key: f

Exercise: # repeat for CC(C)=C1CC[C@]23CO[C@H](C2)[C@@](O)(C(=O)O)CCC13 (stereo not given in full)
Key: f

Exercise: # repeat for CC[C@@H](C)[C@H]1C(=O)O[C@H](C(C)C)C(=O)N(C)[C@@H]([C@@H](C)CC)C(=O)O[C@H](C(C)C)C(=O)N(C)[C@@H]([C@H](C)CC)C(=O)O[C@H](C(C)C)C(=O)N1C
Key: t

Exercise: # repeat for CCOC(=O)NC(O)C(Cl)(Cl)Cl (stereo not given)
Key: f

Exercise: # repeat for CO[C@@H]1[C@H](O)[C@@H](O[C@@H]2C[C@H]3CC[C@@H]4C(CC[C@]5(C)[C@@H](C6=CC(=O)OC6)CC[C@]45O)[C@@]3(C)[C@H](O)C2)O[C@H](C)[C@@H]1O (stereo not given in full)
Key: t

Exercise: # repeat for C=C(C)[C@@]12O[C@@H]1[C@@]1(C)C(=CC2=O)CC[C@@H](OC(C)=O)[C@@H]1C
Key: t

Exercise: # repeat for CCCCCCCCCC(CC)c1ccc(S(=O)(=O)O)cc1 (stereo not given)
Key: t

Exercise: # repeat for COc1cc(C(=O)O[C@H]2[C@@H]3C=CO[C@@H](O[C@@H]4O[C@H](CO)[C@@H](O)[C@H](O)[C@H]4O)[C@@H]3[C@@]3(CO)O[C@@H]23)ccc1O
Key: f

Exercise: # repeat for CCN(CC)CCOC(=O)C(C)(c1ccccc1)c1ccccc1
Key: f

Exercise: # repeat for O=C1c2ccccc2C(=O)C1C(=O)C(c1ccccc1)c1ccccc1
Key: f

Exercise: # repeat for COCC(=O)N(c1c(C)cccc1C)C(C)C(=O)OC (stereo not given)
Key: f

Exercise: # repeat for CCCC(C)(COC(N)=O)COC(=O)NC(C)C (stereo not given)
Key: f

Exercise: # repeat for C[C@@H]1C[C@@H](O)[C@]2(O)O[C@@H]3C[C@@]4(C=O)C(CC[C@@H]5C4CC[C@]4(C)[C@@](O)(C6=CC(=O)OC6)CC[C@]54O)C[C@H]3OC2O1 (stereo not given in full)
Key: t

Exercise: # repeat for COC1CC(OC2CCC3(C=O)C(CCC4C3CCC3(C)C(C5=CC(=O)OC5)CCC43O)C2)OC(C)C1OC1OC(CO)C(O)C(O)C1O (stereo not given)
Key: t

Exercise: # repeat for NP(N)(=O)NC(=O)c1ccc(F)cc1
Key: f

Exercise: # repeat for COc1ccc(OC)c(CC(C)N)c1 (stereo not given)
Key: f

Exercise: # repeat for C#C[C@]1(O)C=C[C@H]2[C@@H]3CCC4=CC(=O)CC[C@@H]4[C@H]3CC[C@@]21CC
Key: f

Exercise: # repeat for O=C(N[C@H]1CN2CCC1CC2)c1cc2cccc(Cl)c2s1
Key: t

Exercise: # repeat for C#CC(O)(C=CCl)CC (stereo not given)
Key: f

Exercise: # repeat for COC1CC(O[C@H]2CC[C@]3(C=O)C4CC[C@]5(C)[C@@H](C6=CC(=O)OC6)CC[C@]5(O)[C@@H]4CC[C@]3(O)C2)OC(C)C1O[C@@H]1O[C@H](CO)[C@@H](O)[C@H](O)[C@H]1O (stereo not given in full)
Key: t

Exercise: # repeat for C=C1[C@@H](C)[C@H]2[C@H](Cc3ccccc3)NC(=O)[C@]23OC(=O)/C=C/C(=O)CCC[C@@H](C)C/C=C/[C@H]3[C@@H]1O
Key: t

====

PROCEDURE DETAILS: Quantitative highthroughput screen to assess conditional lethalithy of P12 Ichikawa cells grown in RPMI1640 with dialyzed fetal bovine serum (RPMI+ds) (AID 1963880); further: nearly all actives have a fitted effect of over 35% in size;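 on viability: 100% = DMSO wells and 0% = empty wells on each plate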
MEASUREMENT SETUP: ATP luminescence, 48 h; P12-Ichikawa viability; series mostly up to 45.8 µM
Inconclusive results are not listed. The source made the active and inactive calls. Calls come from the whole dose curve; as a rule, active = well fitted cell-killing curve with a large enough effect; inconclusive = small, poorly fitted or top-dose-only effect; inactive = flat fitted curve, though single readings scatter.
Field 'call' accepts yes (1) = active, no (0) = inactive

Exercise: I'd appreciate the recorded outcome for CN(C)[C@@H]1C(=O)C(C(N)=O)=C(O)[C@@]2(O)C(=O)C3=C(O)c4c(O)cccc4[C@@](C)(O)[C@H]3[C@H](O)[C@@H]12 from this test.
Key: no (0)

Exercise: # repeat for COC1(CS(=O)c2ccccc2)CCN(CCc2c[nH]c3ccc(F)cc23)CC1 (stereo not given)
Key: no (0)

Exercise: # repeat for O=[N+]([O-])c1ncc[nH]1
Key: no (0)

Exercise: # repeat for CC(C)C[C@H](CN)CC(=O)O
Key: no (0)

Exercise: # repeat for CN1CCN(C(=O)O[C@H]2c3nccnc3C(=O)N2c2ccc(Cl)cn2)CC1
Key: no (0)

Exercise: # repeat for C[C@]12COC(=O)C[C@@H]1CC[C@@H]1[C@H]2CC[C@@]2(C)[C@H]1CC[C@]2(C)O
Key: no (0)

Exercise: # repeat for CN(C)CCN(C)CCc1ccc(Cl)c(Cl)c1
Key: no (0)

Exercise: # repeat for CC(C)c1cccc(C(C)C)c1O
Key: no (0)

Exercise: # repeat for C=C[C@@H]1CN2CCC1C[C@@H]2[C@@H](O)c1ccnc2ccccc12 (stereo not given in full)
Key: no (0)

Exercise: # repeat for Oc1ccc2c3c1O[C@H]1c4[nH]c5c(c4C[C@@]4(O)[C@@H](C2)N(CC2CC2)CC[C@]314)C[C@@]1(O)[C@H]2Cc3ccc(O)c4c3[C@@]1(CCN2CC1CC1)[C@H]5O4
Key: no (0)

Exercise: # repeat for C#C[C@]1(O)C=C[C@@H]2[C@@H]3CCC4=CC(=O)CC[C@@H]4[C@H]3CC[C@@]21CC
Key: no (0)

Exercise: # repeat for CN1C(=O)CCS(=O)(=O)C1c1ccc(Cl)cc1 (stereo not given)
Key: no (0)

Exercise: # repeat for CC(C)N(CCNC(=O)CN1CCCC1=O)C(C)C
Key: no (0)

Exercise: # repeat for N[C@@H](Cc1ccc(N(CCCl)CCCl)cc1)C(=O)O
Key: yes (1)

Exercise: # repeat for CC(=O)O[C@@]12CO[C@H]1C[C@H](O)[C@@]1(C)C(=O)[C@H](O)C3=C(C)[C@@H](O)C[C@@](O)([C@@H](OC(=O)c4ccccc4)[C@@H]21)C3(C)C
Key: yes (1)

Exercise: # repeat for CN(C)CCc1ccc(O)cc1
Key: no (0)

Exercise: # repeat for Cc1cc(SCc2sc(-c3ccc(C(F)(F)F)c(F)c3)nc2C)ccc1OCC(=O)O
Key: no (0)

Exercise: # repeat for C[C@]12CCC(=O)C=C1CC[C@@H]1[C@H]3CC[C@](C)(O)[C@@]3(C)CC[C@@H]12
Key: no (0)

Exercise: # repeat for C[C@@H]1CC[C@@]2(OC1)O[C@H]1C[C@H]3[C@@H]4CC=C5C[C@@H](O[C@@H]6O[C@H](CO)[C@@H](O[C@@H]7O[C@@H](C)[C@H](O)[C@@H](O)[C@@H]7O)[C@H](O)[C@@H]6O[C@@H]6O[C@@H](C)[C@H](O)[C@@H](O)[C@@H]6O)CC[C@]5(C)[C@@H]4CC[C@]3(C)[C@@H]1[C@H]2C
Key: yes (1)

Exercise: # repeat for C[C@](O)(COc1ccc(C#N)cc1)C(=O)Nc1ccc(C#N)c(C(F)(F)F)c1
Key: no (0)
